system: K562; assay: Monolayer growth, K562; assay type: cell-based; conditions: Homo sapiens; K562, anchorage dependent
pIC50: −log10 of the molar value.
READOUT_LABEL: pIC50

Query COc1cccc(-c2cc(=O)c3ccccc3o2)c1N [invention compound] yields pIC50 of < 4.00

Source: patent US5525625A
